- System: pigweed
- METHOD: Test C postemergence
- Type: in vivo, Amaranthus retroflexus
- STUDY CONDITIONS: 16 g ai/ha, postemergence; 0 is no effect, 100 is complete control
VALUE TYPE: Plant response rating (0 to 100), Pigweed

INSERT INTO measurements (smiles_code, value_measured) VALUES
  ('Clc1cnc(Oc2cccc(Cl)c2-n2cc(Cl)cn2)nc1', 65),
  ('Clc1cnc(Oc2ccccc2-n2cc(Br)nn2)nc1', 70),
  ('Cc1cnc(Oc2cccc(C#N)c2-n2cc(C(F)(F)F)cn2)nc1', 10),
  ('Clc1cnc(Oc2cccc(Br)c2-n2cc(Cl)cn2)nc1', 60),
  ('O=Cc1cccc(Oc2ncc(I)cn2)c1-n1cc(Br)cn1', 10),
  ('FC(F)c1cnn(-c2c(Br)cccc2Oc2ncc(Cl)cn2)c1', 60),
  ('N#Cc1cn(-c2c(C#N)cccc2Oc2ncc(Cl)cn2)nn1', 65);

---

Here, each record is paired with measured Plant response rating, Ducksalad data.
- System: Heteranthera limosa
- METHOD: Test B flooded paddy test
- Format: in vivo
- STUDY CONDITIONS: Flood, 250 g ai/ha; 0 to 100 scale where 0 is no effect and 100 is complete control
VALUE TYPE: Plant response rating, Ducksalad

INSERT INTO assay_data (molecule, value_measured) VALUES
  ('FCc1cccc(Oc2ncc(Cl)cn2)c1-n1cc(I)cn1 [Compound 245]', 75),
  ('N#Cc1cnn(-c2c(Oc3ncc(F)cn3)cccc2C(F)F)c1 [Compound 240]', 50),
  ('Fc1cnc(Oc2ccccc2-n2cc(SC(F)(F)F)cn2)nc1 [Compound 247]', 65),
  ('FC(F)(F)c1cnn(-c2c(Oc3ncc(Cl)cn3)cccc2-c2ncon2)c1 [Compound 279]', 90),
  ('N#Cc1cn(-c2c(C#N)cccc2Oc2ncc(Cl)cn2)nn1 [Compound 273]', 75);

---

- Tested on: kochia
- METHOD: Test C postemergence
- Assay type: in vivo, Kochia scoparia
- STUDY CONDITIONS: 31 g ai/ha, postemergence; visual rating, scale 0 to 100 (0 no effect, 100 complete control), 13 to 15 days
Kochia plant response rating vs 60: at or above is T, below is F.

INSERT INTO assay_data (smiles_code, class) VALUES
  ('FC(F)(F)c1cnn(-c2c(Br)cccc2Oc2ncc(Cl)cn2)c1', 'T'),
  ('N#Cc1cn(-c2c(C#N)cccc2Oc2ncc(Cl)cn2)nn1', 'T'),
  ('Clc1cnc(Oc2cccc(Cl)c2-n2cc(Cl)cn2)nc1', 'T'),
  ('O=Cc1cccc(Oc2ncc(I)cn2)c1-n1cc(Br)cn1', 'F'),
  ('Cc1cnc(Oc2cccc(C#N)c2-n2cc(C(F)(F)F)cn2)nc1', 'F');

---

Here, each record is paired with measured Plant response rating, Galium data.
- Tested on: galium
- METHOD: Test C postemergence
- Format: in vivo, Galium aparine
- STUDY CONDITIONS: Postemergence, 62 g ai/ha; scale 0 to 100 (0 no effect, 100 complete control)
VALUE TYPE: Plant response rating, Galium

INSERT INTO results (compound, value_type, value_measured) VALUES
  ('Clc1cnc(Oc2cccc(Cl)c2-n2cc(I)cn2)nc1 [Compound 181]', 'Plant response rating, Galium', 70),
  ('FC(F)(F)c1cnn(-c2c(Br)cccc2Oc2ncc(Cl)cn2)c1 [Compound 191]', 'Plant response rating, Galium', 98),
  ('FCc1cn(-c2ccccc2Oc2ncc(Cl)cn2)nn1 [Compound 123]', 'Plant response rating, Galium', 85),
  ('Clc1cnc(Oc2cccc(Br)c2-n2cc(I)nn2)nc1 [Compound 117]', 'Plant response rating, Galium', 70),
  ('N#Cc1cccc(Oc2ncc(Cl)cn2)c1-n1cc(OC(F)F)cn1 [Compound 97]', 'Plant response rating, Galium', 85),
  ('FC(F)Oc1cnn(-c2ccccc2Oc2ncc(Cl)cn2)c1 [Compound 98]', 'Plant response rating, Galium', 75);

---

- System: wild oat
- METHOD: Test C postemergence
- Format: in vivo, Avena fatua
- STUDY CONDITIONS: Postemergence, 62 g ai/ha; scale 0 to 100 (0 no effect, 100 complete control); 13 to 15 days
VALUE TYPE: Plant response rating, Oat, Wild

INSERT INTO results (smiles_code, value_measured) VALUES
  ('Clc1cnc(Oc2ccccc2-n2cc(I)nn2)nc1', 30),
  ('FC(F)Oc1cnn(-c2c(Cl)cccc2Oc2ncc(Cl)cn2)c1', 10),
  ('FCc1cccc(Oc2ncc(Cl)cn2)c1-n1cc(I)cn1', 5),
  ('N#Cc1cnn(-c2c(C#N)cccc2Oc2ncc(Cl)cn2)c1', 15),
  ('Clc1cnc(Oc2cccc(Br)c2-n2cc(Cl)cn2)nc1', 10),
  ('Fc1cnc(Oc2ccccc2-n2cc(C(F)F)cn2)nc1', 0);

---

- Tested on: sedge, umbrella
- METHOD: Test B flooded paddy test
- Assay type: in vivo, Cyperus difformis
- STUDY CONDITIONS: Flood, 250 g ai/ha; 0 to 100 scale where 0 is no effect and 100 is complete control
VALUE TYPE: Plant response rating, Sedge, Umbrella

INSERT INTO measurements (smiles_code, value_measured) VALUES
  ('Cc1cnc(Oc2ccccc2-n2cc(Br)cn2)nc1', 60),
  ('Fc1cnc(Oc2cccc(C(F)F)c2-n2cc(C(F)(F)F)cn2)nc1', 90),
  ('N#Cc1cccc(Oc2ncc(C(F)(F)F)cn2)c1-n1cc(Br)cn1', 0),
  ('Fc1cnc(Oc2cccc(Br)c2-n2cc(OCC(F)(F)F)cn2)nc1', 75),
  ('FC(F)(F)c1ccc(Oc2ncc(Cl)cn2)c(-n2cc(Br)cn2)c1', 0);

---

Here, each record is paired with measured Plant response rating, Foxtail, Giant data.
- Tested on: giant foxtail
- METHOD: Test C postemergence
- Assay type: in vivo, Setaria faberii
- STUDY CONDITIONS: Postemergence, 62 g ai/ha; scale 0 to 100 (0 no effect, 100 complete control); 13 to 15 days
- Source text: […]
VALUE TYPE: Plant response rating, Foxtail, Giant

INSERT INTO measurements (smiles_code, study_target, value_measured) VALUES
  ('Clc1cnc(Oc2cccc(Br)c2-n2cc(Cl)cn2)nc1', 'giant foxtail', 5),
  ('FC(F)Oc1cnn(-c2c(Cl)cccc2Oc2ncc(Cl)cn2)c1', 'giant foxtail', 25),
  ('N#Cc1cnn(-c2c(C#N)cccc2Oc2ncc(Cl)cn2)c1', 'giant foxtail', 5),
  ('Clc1cnc(Oc2ccccc2-n2cc(I)nn2)nc1', 'giant foxtail', 5),
  ('N#Cc1cn(-c2c(C#N)cccc2Oc2ncc(Cl)cn2)nn1', 'giant foxtail', 10);

---

- Test system: oilseed rape
- METHOD: Test C postemergence
- Type: in vivo, Brassica napus
- STUDY CONDITIONS: 125 g ai/ha, postemergence; visual rating, scale 0 to 100 (0 no effect, 100 complete control)
Here, each record is paired with measured Plant response rating, Oilseed Rape data.
VALUE TYPE: Plant response rating, Oilseed Rape

INSERT INTO assay_data (compound, value_measured) VALUES
  ('FC(F)c1cnn(-c2c(Br)cccc2Oc2ncc(Cl)cn2)c1 [Compound 232]', 60),
  ('FC(F)c1cccc(Oc2ncc(Br)cn2)c1-n1cc(C(F)(F)F)cn1 [Compound 163]', 80),
  ('Clc1cnc(Oc2cccc(Br)c2-n2cc(I)nn2)nc1 [Compound 117]', 70),
  ('FC(F)(F)c1cnn(-c2c(Br)cccc2Oc2ncc(Cl)cn2)c1 [Compound 191]', 50),
  ('Fc1cnc(Oc2ccccc2-n2cc(C(F)F)cn2)nc1 [Compound 228]', 85),
  ('N#Cc1cn(-c2c(C#N)cccc2Oc2ncc(Cl)cn2)nn1 [Compound 273]', 25);

---

- Tested on: morningglory
- METHOD: Test C postemergence
- Type: in vivo, Ipomoea coccinea
- STUDY CONDITIONS: Postemergence, 62 g ai/ha; scale 0 to 100 (0 no effect, 100 complete control)
Here, each record is paired with measured Plant response rating, Morningglory data.
VALUE TYPE: Plant response rating, Morningglory

INSERT INTO measurements (smiles_code, value_measured) VALUES
  ('Cc1cnc(Oc2cccc(C#N)c2-n2cc(C(F)(F)F)cn2)nc1', 75),
  ('Fc1cccc(Oc2ncc(Cl)cn2)c1-n1cc(Cl)cn1', 80),
  ('N#Cc1cnn(-c2c(Br)cccc2Oc2ncc(Cl)cn2)c1', 75),
  ('N#Cc1cccc(Oc2ncc(Cl)cn2)c1-n1cc(OC(F)F)cn1', 85),
  ('FC(F)Oc1cnn(-c2ccccc2Oc2ncc(Cl)cn2)c1', 65);
